# testProtocol: protease stability score; higher = more stable; yeast display proteolysis, trypsin and chymotrypsin;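 further: relative to predicted unfolded state with 0 unfolded-like and 1 meaning tenfold more protease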
assayMetric: protease stability score

# sequenceEntry, assayMetric, observedValue
records = [
    ("DEEEEVLKTYLKLLIDALRTGDEHTMTRLIDPHARTHQGDKEIHGRKSMEELNKRYPNVRVDIRHISEVGDKITIDAVLHVGDKRYEIVIIAWKVNGRWEHTEFEFR", "protease stability score", 0.808),
    ("SEHEERMRRYIEIFIHNLITGDEHMINRMADPSTIVIINGVRLWGREEFSKWVRRERERIDHIEMRIEHLDVQGDKATVDVRVEEHVGDKSEERSLIIRLIVVNGRSHSMHFEVR", "protease stability score", 1.59),
    ("DEEEKLIRIFDKLLSRAMKTGDEHELFKLIDPHTRMVVNGRTFIGWELFSHVVRHWRIDHIDLEDFKVQGDYAHLDGRVDQTVNGVKIETRSIIINEKFNGRWNNSSVILH", "protease stability score", 0.163),
    ("DEDEELVRHAYEDWLHTVRTGDEHTLNKLFDPHVRMHYDGVESHGWRIAHHFHRRFKNMQVRIDDEHIEVYGEFARVESKITLDVGEYKIDLTLIVIMIKVNGRWKIHSVRIEKR", "protease stability score", 1.17),
    ("DEEKESAERWLHIFLHSMDTGDEDKIRKLLDPNVLNDVGDKVLIGRELAFKWFHHLRFRKVHLRDFRIINGRIEVDIDVRGEINGKEDHFRLEVDLRKINGRWVLHEIRID", "protease stability score", 2.81),
    ("DEDEELLRRRADLFLKAYITGDENLLKRLADPDVLFDVNGRVFHGREHFITWLHRQLREFKNMRIHIRDIKHEVQGNFLHSEVDVTININGKEHWFILILIASKVDGKWIVEQIEIRFE", "protease stability score", 1.48),
    ("GEHEDYILHIVDLFIHNILTGDWDAILKLMDPDVRFEIEINGRTIEIHGWEQIKRIMDEIKERADHLHIEIRDKFSVNGVAFFEGTIEIRVGDKRHREDVEIILFVVDGRIKIIRKRDV", "protease stability score", 1.99),
    ("SEEKELLEKISELLLKLLKTGDEETWNKLADPNMRLNVNGKDVHGWHKMIKLRHEVWEKLGIDHLEVKTIDIINGRVRIESRLVVNGRFIHIELEFHVINGRNEEEHLFVR", "protease stability score", 0.418),
    ("DEEKEEADEHIRLLIDVMKTGDEDSMRRLIDPNVRIRVDGKEDHGMEKLVHLLRHARYREVRIEHVEHQGEKVIIHYKAWVEIDGQENHKKWHFIVTKVDGKWTLKEVSVH", "protease stability score", 2.3),
    ("HEMQEEAHIATELIIDTFKTGDEKKMRELFDPTPRLHQGDKRFHGREEVVHIISERIHRFGFNHIEVKTVRVQGDFIIVHGEKDVNGQRVEVILHIWKYDGRWEVHRIEIR", "protease stability score", 1.23),
    ("SEDKELADRFLNHITHLIRTGDENALSENLDPNTRLHIGDKHYIGWEEFLRIISERWKRADHQDVKLRDSRVQGDKVHLDGEIILIVDGKEIRHDFRIIVYKIDGRWHLESIRIG", "protease stability score", 2.09),
]

###

# testProtocol: protease stability score; higher = more stable; yeast display proteolysis, trypsin and chymotrypsin;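 further: relative to predicted unfolded state with 0 unfolded-like and 1 meaning tenfold more protease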
assayMetric: protease stability score

# sequenceEntry, assayMetric, observedValue
rows = [
    ("REEEEHARRLVEMYFHALLTGDEDLLKSLLDPNVKLQIGDKVHVGREELIRSLRELWDKLGIDHITLEEYRIEIQGNKIRLKLYMHLHVNGRLLQVTTDILVDKVDGRWVIQEIRVHEA", "protease stability score", 1.91),
    ("SELEERAEKMTKEFERAFVTGNWEEQVKLLDPNVRIDINGVIFVGREQYERLVREIWMHVEDFRVTSLELQGEKARTHVESDVIIRVNGRDIRKKTEEEIVVSKINGVWSVERIHVR", "protease stability score", 1.24),
    ("SEDHEMAKRIVKQFMEEIFTGDWRDFEELLDPDVRIIIGDKELHGREQFELELRHMRRSIDEMHFTDAKVVGDKMIFDTRMKITIHVNGKELRFTTKSTFFILKVDGVWRIRQITVL", "protease stability score", 2.13),
    ("DEDHRHARNIFQKWTHDLATGNFHSLNTLFDPHARFEVGDKDIIGRHEWQEHLRHLRLHEVKFTWRRFRIFDGRVEMRGDLRVDGTIDGQHDDETIHTHMIILKVNGRWHIDSMHVH", "protease stability score", 1.08),
    ("DEHNKLAILIVEILWHLWETGNEEELVKLADPNYKHDVNGKISVGREEFEKTTHYLLNHLRFKHRHVRDEKVQGNKFHVDGQLNIDVNGREVRFDLRVVYIIVNGRLRSEHIDIV", "protease stability score", 1.71),
    ("DETQELAEEIVRKMIENWLTGNEEELHKMADPHVRVHINGVDLHGREVWEKWVHDELEKIPGIRREFELKRLEIYGDYIDIDGILILTFNGRKHTHKVRIHLHIVDGKLHRLEIRNK", "protease stability score", 1.28),
    ("SEHDDLIRHYAERIRKSLLTGDEHDLTELLDPNTYFEVRIGDFTLKAHGWERVHEVLDMINENLGIKHDDIQHIEWYGDKIHIDTRVRIGDKEIHTEVIIVVINGKVSKIEHRVI", "protease stability score", 0.45),
    ("DEATEKAKKAYELWMHSLKTGDEHHLKNLMDPDVRVIIDGVDMHGWEAAHFERRRFDHIHRVHVDHYEFQGNKSIWDGTVDGKVGDKEHRNRRIIIMNVVDGRYKSIHLHVE", "protease stability score", 0.991),
    ("DEVERHLKEIFKDLERALNTGDEDRFEHLMDPHARYDVNGVEFIGMRWFRKLVKEIRIRHVDMRLEDVRHVGDFVKMITRIHIEVDINGKNDERETRTILIMHKIDGRWEIKEVIFL", "protease stability score", 1.38),
    ("DEEEELARKYTEIYRHFMHTGDEDLNREFADPNTQILQGNKRFHGWKWYLEIVRRLGADHMEIHRVDVQGDKVHNDGRMIVNGKTLHFELIITKIDGRWVLREVRLG", "protease stability score", 1.4),
    ("SEEEKEYEHWMRLYLHWRLTGDEEAEKRNADPNTRVEFNGKELHGMEVVSEFIIKLRNEMRFEFLEIDDMRVIDGVSHFDVTVDGVIDGKRVRLTLHIILIVINGKIHHIQEEWK", "protease stability score", 1.43),
]

###

// protease stability score lookup, one value per entry
# testProtocol: protease stability score; higher = more stable; yeast display proteolysis, trypsin and chymotrypsin;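 further: relative to predicted unfolded state with 0 unfolded-like and 1 meaning tenfold more protease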
assayMetric: protease stability score

# sequenceEntry, assayMetric, observedValue
records = [
    ("SEEDRILELIARMMFNLWLTGNEEELERLVDPNARSVINGQEVHGMHETKELLRRLKEHIRIDDMRISRIEVYNGRAIVDLSVDGEFNGRRDITRVEIVIYVVDGKVRSIEFHRK", "protease stability score", 1.78),
    ("DEIHQFIEHMTKLLITALYTGDERMLEELADPHVKLDIGDKHSVGRENFVEMMKWLADHIRVRHTDIHDLKIYGEKTRVDMRVDGEVDGQRVEYRVEIFLFVVDGRLKRSSVHFK", "protease stability score", 1.09),
    ("SEDEELVRRAVHRFIKLLETGDWDKIQNNVDPHVRLHVDGVDFIGRELFIHWVDRVKGMRHDIRDVRIEFHGDKAHIDMVTELEIGDKRRETRVHLVMRKINGRWIIESEEYRII", "protease stability score", 2.64),
    ("DEDTKLAQKMSKLLNHAIHTGDEKILRQLLDPHVRVHIGDKEHHGWKEYEKIMQEWRFEHVETEHVSLVNGRLHIDSHIVGNIDGRRTEVETHIIIKKFDGRWIDTEFHMK", "protease stability score", 0.583),
    ("DEDHKWAKFMFEVFKKVVETGDEEVFKHLADPNVRMEVGDKEFIGREEFRRFLNELRIHHQRDTHIEIRSVGDKIEVLIDGETTIEVGDKTRDHRMRVILFTMKVDGRWLIRSIRFEIH", "protease stability score", 1.56),
    ("SEDEEYAKNVDKIMRESLMTGDEDSVERMFDPHAKVIVGDKEYHGREEMVRHIKWFLEHARIRDLRMRDVRIYGDKIEIDVEVDIDVNGKRIQRKEVIYVVKVNGKWIVEYIEIK", "protease stability score", 1.54),
    ("DEDEEFAENVVERTIHHTQTGDWRMLKHLLDPHVRMNIDGQELHGREQWIRFMEQIKGATLELHIEDFDSQGEKLTLHVRTILVFDGRKYERHVDLLILKVDGRWHIHQFIVR", "protease stability score", 1.41),
    ("THEQKLSHEITHIFWEILKTGDEHEMRRLADPNVQLEINGVERHGMHVLEHWLVHLGIDHLHVTDHRVQGEYSYWDTTLRVGDKERTIHLEVLAFNGRVKAFRLHVR", "protease stability score", 1.22),
    ("DEDEKRELARRFAKNFLHGDHDNIRDLADKDVDAQVGDQTFTGTEQLMRVVKEVRDRVDHFNLTSVDVHNGQADIHARAKVNGRDYRVKIRIKIHNGRILHVQFNRR", "protease stability score", 1.31),
    ("DEEDEDARVALEEVMRSQITGDEEKSEKLIDPHVRLEIGDKIYHGRELVVRVEHELGVKHIEPKKVEMQGDWIDLHGVIVYGDKKIHQTLHLLKFNGKWLIKEIRIK", "protease stability score", 1.6),
    ("SEDEEYLKRALELWDELVKTGDEHRSRRLFDPNARLEIGDKEYHGREEVTHMLRWLIKEIRVHSVTLKDFRSQGDKLIADTRQNREYNGKSDNVSLIMIIIKVDGRWLIESIKIE", "protease stability score", 1.41),
]
